# key: entry, value: Percent Activity
Target: Human thrombin (Homo sapiens, UniProt P00734)
Construct: purchased R.Q.P. Laboratories, South Bend, IN Lot HT102
Test: Inhibition of Thrombin (Esterase Activity)
Assay type: biochemical
Conditions: inhibitor 1000 nM; activity remaining 10 to 20 min after initiation
Residues, ends and D or L forms follow the SMILES beside them. *: point of attachment. X3 = CC1(C)C2CC3OB(C(CCCN)N*)OC3(C)C1C2; Boc = CC(C)(C)OC(=O)*

Q: # Percent Activity lookup, item CC(C)CC(NC(=O)CNC(=O)C(CC(C)C)NC(=O)OC(C)(C)C)C(=O)NC(C)C(=O)NC(CCCN)B1OC2CC3CC(C3(C)C)C2(C)O1.O=S(=O)(O)c1ccccc1 (stereo not drawn) [Boc-Leu-Gly-Leu-Ala-boroOrn-C10 H16] (Boc-LGLA-X3; configuration not given here)
Result: 24%

---
Q: # Percent Activity lookup, item CC(C)CC(NC(=O)C(NC(=O)OC(C)(C)C)C(C)C)C(=O)NC(CCCCN)B1OC(C)(C)C(C)(C)O1.Cl (stereo not shown) [Boc--(D)Val--Leu--boroLys--C6 H12.HCl]
Result: 21%

Q: Query Br.CC(=O)NC(Cc1ccccc1)C(=O)NC(CCCSC(=N)N)B1OC2CC3CC(C3(C)C)C2(C)O1 (stereo not shown) [G, Ac-Phe-boroIrg-C10 H16.HBr] next
Result: 64%

Q: Query Br.CC1(C)C2CC3OB(C(CCCSC(=N)N)NC(=O)CNC(=O)C(CCC(=O)O)NC(=O)c4ccccc4)OC3(C)C1C2 (stereo not drawn) [Bz--Glu--Gly--boroIrg-- C10 H16.HBr, Bz-Glu-Gly-boroIrg-C10 H16.HBr] next
Result: 39%

Q: Query CC(=O)NC(C)C(=O)NC(CCCCN)C(=O)NC(CCCNC(=N)N)B1OC2CC3CC(C3(C)C)C2(C)O1.Cl.Cl (stereo not drawn) [Ac--Ala--Lys--boroArg--C10 H16.2HCl, Ac-Ala-Lys-boroArg-C10 H16.2HCl] next
Result: 45%

Q: Query Br.CC1(C)C2CC3OB(C(CCCSC(=N)N)NC(=O)C(Cc4ccccc4)NC(=O)C4CCCN4C(=O)c4ccccc4)OC3(C)C1C2 (stereo not drawn) [Bz--Pro--Phe--boroIrg--C10 H16.HBr, Bz-Pro-Phe-boroIrg-C10 H16.HBr] next
Result: 21%

Q: Query Cl.NC(N)=NCCC[C@H](NC(=O)[C@H](Cc1ccccc1)NC(=O)[C@@H]1CCCN1C(=O)c1ccccc1)B(O)O [Bz--Pro--Phe--boroArg--OH.HCl, Bz-Pro-Phe-boroArg-OH.HCl] next
Result: 18%

Q: Query Br.Br.CC(=O)NC(C)C(=O)NC(CCCCN)C(=O)NC(CCCSC(=N)N)B1OC2CC3CC(C3(C)C)C2(C)O1 (stereo not drawn) [Ac--Ala--Lys--boroIrg--C10 H16.2HBr, Ac-Ala-Lys-boroIrg-C10 H16.2HBr] next
Result: 68%

Q: Query CC(=O)NC(Cc1ccccc1)C(=O)NC(CCCNC(=N)N)B1OC2CC3CC(C3(C)C)C2(C)O1.Cl (stereo not shown) [Compound F, Ac-Phe-boroArg-C10 H16.HCl] next
Result: 53%

Q: Query CC1(C)C2CC3OB(C(CCCNC(=N)N)NC(=O)C(Cc4ccccc4)NC(=O)C4CCCN4C(=O)c4ccccc4)OC3(C)C1C2.O=S(=O)(O)c1ccccc1 (stereo not shown) [Bz--Pro--Phe--boroArg--C10 H16.BSA] next
Result: 24%

// provenance: patent US5187157A
